- Experimental Target: estrogen receptor alpha (ESR1) in MCF7 breast cancer cells (Homo sapiens)
- Construct: endogenous in cells; host or cells: MCF7 breast cancer cells
- Assay Info: Breast Cancer Cell ERa High Content Fluorescence Imaging Assay (F10)
- Assay type: cell-based
- Condition Summary: 4 hours, plateau of the maximal effect, DMSO and 5 nM Fulvestrant define 0% and 100% changes in ESR1
Observed Property: ER-alpha MCF7 HCS Sinf (%)

CC1=C(c2cccc(F)c2Cl)C(c2ccc(OCCN3CC(CF)C3)cc2)Oc2ccc(O)cc21 (stereo not shown)	−98%
CC1=C(c2ccc(F)c(C#N)c2)C(c2ccc(OCCN3CC(CF)C3)cc2)Oc2ccc(O)cc21 (stereo not shown)	−96%
CC1=C(c2ccc(F)cc2Cl)[C@H](c2ccc(OCCN3CC(CF)C3)cc2)Oc2ccc(O)cc21	−100%
CC1=C(c2ccc(C#N)c(Cl)c2)C(c2ccc(OCCN3CC(CF)C3)cc2)Oc2ccc(O)cc21 (stereo not shown)	−99%

====

- Experimental Target: estrogen receptor alpha (ESR1) in MCF7 breast cancer cells (Homo sapiens)
- Construct: endogenous in cells; host or cells: MCF7 breast cancer cells
- Sequence (P03372 1-595): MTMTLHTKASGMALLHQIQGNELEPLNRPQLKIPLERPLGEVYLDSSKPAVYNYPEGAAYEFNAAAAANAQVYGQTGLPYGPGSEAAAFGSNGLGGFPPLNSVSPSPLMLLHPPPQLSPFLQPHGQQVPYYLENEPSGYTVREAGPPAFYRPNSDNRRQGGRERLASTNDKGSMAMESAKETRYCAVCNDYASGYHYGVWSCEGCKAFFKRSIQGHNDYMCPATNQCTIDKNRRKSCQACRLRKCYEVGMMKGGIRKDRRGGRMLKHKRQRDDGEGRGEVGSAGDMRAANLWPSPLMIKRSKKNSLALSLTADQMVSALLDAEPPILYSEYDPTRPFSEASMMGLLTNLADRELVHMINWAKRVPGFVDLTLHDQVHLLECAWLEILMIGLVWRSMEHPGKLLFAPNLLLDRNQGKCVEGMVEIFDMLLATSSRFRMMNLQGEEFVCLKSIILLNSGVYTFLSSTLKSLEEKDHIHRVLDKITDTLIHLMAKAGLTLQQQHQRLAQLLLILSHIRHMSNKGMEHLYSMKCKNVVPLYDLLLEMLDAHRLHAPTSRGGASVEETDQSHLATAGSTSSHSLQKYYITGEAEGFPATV
- Assay Info: Breast Cancer Cell ERa High Content Fluorescence Imaging Assay (F10)
- Assay type: cell-based
- Condition Summary: 4 hours, plateau of the maximal effect, DMSO and 5 nM Fulvestrant define 0% and 100% changes in ESR1
// values below are reported ER-alpha MCF7 HCS Sinf (%)
Observed Property: ER-alpha MCF7 HCS Sinf (%)

CC1=C(c2cccc(S(C)(=O)=O)c2)C(c2ccc(OCCN3CC(CF)C3)cc2)Oc2ccc(O)cc21 (stereo not shown)	−99
CC1=C(c2ccc(C(N)=O)cc2)C(c2ccc(OCCN3CC(CF)C3)cc2)Oc2ccc(O)cc21 (stereo not shown)	−99
CC(=O)Nc1cccc(C2=C(C)c3cc(O)ccc3OC2c2ccc(OCCN3CC(CF)C3)cc2)c1 (stereo not shown)	−94
CC1=C(c2cccc(NS(C)(=O)=O)c2)C(c2ccc(OCCN3CC(CF)C3)cc2)Oc2ccc(O)cc21 (stereo not shown)	−93
CC1=C(c2ccc(Cl)c(F)c2)C(c2ccc(OC[C@H](C)N3CC[C@@H](CF)C3)cc2)Oc2ccc(O)cc21 (stereo partly shown)	−91
CC1=C(c2cccc(C(N)=O)c2)C(c2ccc(OCCN3CC(CF)C3)cc2)Oc2ccc(O)cc21 (stereo not shown)	−97
CC1=C(c2cccc(Cl)c2)[C@@H](c2ccc(OCCN3CC(CF)C3)cc2)Oc2ccc(O)cc21	−95
CC1=C(c2ccc(Cl)c(F)c2)C(c2ccc(OCCN3CC[C@@H](CF)C3)cc2)Oc2ccc(O)cc21 (stereo partly shown)	−95
CC1=C(c2cccc(Cl)c2)[C@H](c2ccc(OCCN3CC(CF)C3)cc2)Oc2ccc(O)cc21	−98
CC1=C(c2ccc(NS(C)(=O)=O)cc2)C(c2ccc(OCCN3CC(CF)C3)cc2)Oc2ccc(O)cc21 (stereo not shown)	−68
CC1=C(c2ccc(F)cc2C)C(c2ccc(OCCN3CC(CF)C3)cc2)Oc2ccc(O)cc21 (stereo not shown)	−96
CC1=C(c2ccc(F)c(C#N)c2)[C@H](c2ccc(OCCN3CC(CF)C3)cc2)Oc2ccc(O)cc21	−97
CC1=C(c2ccc(F)cc2Cl)[C@@H](c2ccc(OCCN3CC(CF)C3)cc2)Oc2ccc(O)cc21	−98
COc1cc(C2=C(C)c3cc(O)ccc3OC2c2ccc(OCCN3CC(CF)C3)cc2)ccc1O (stereo not shown)	−98
CC1=C(c2cc(F)cc(F)c2)[C@H](c2ccc(OCCN3CC(CF)C3)cc2)Oc2ccc(O)cc21	−103
CC1=C(c2ccc(S(C)(=O)=O)cc2)C(c2ccc(OCCN3CC(CF)C3)cc2)Oc2ccc(O)cc21 (stereo not shown)	−90
CC(=O)Nc1ccc(C2=C(C)c3cc(O)ccc3OC2c2ccc(OCCN3CC(CF)C3)cc2)cc1 (stereo not shown)	−93
C#Cc1cc(O)cc(C2=C(C)c3cc(O)ccc3OC2c2ccc(OC[C@H](C)N3CC[C@@H](CF)C3)cc2)c1 (stereo partly shown)	−94
CC1=C(c2cccc(CO)c2)C(c2ccc(OCCN3CC(CF)C3)cc2)Oc2ccc(O)cc21 (stereo not shown)	−101
CC1=C(c2cc(F)ccc2C)C(c2ccc(OCCN3CC(CF)C3)cc2)Oc2ccc(O)cc21 (stereo not shown)	−99
CC1=C(c2cc(F)ccc2F)[C@H](c2ccc(OCCN3CC(CF)C3)cc2)Oc2ccc(O)cc21	−94
CC1=C(c2ccc(F)c(C#N)c2)[C@@H](c2ccc(OCCN3CC(CF)C3)cc2)Oc2ccc(O)cc21	−88
